Target: UniProt P51531
Assay: MSD SMARCA2 degradation in NCI-H1299 cell line (24 h)
Assay type: cell-based
Design: HC: NCI-H1299 cells treated with DMSO; host or cells: NCI-H1299
Conditions: NCI-H1299 cells, read-out: SMARCA2 MSD H1299 degradation 24 h: External Abs-DC50
Reported DC50 values for a set of molecules

Below are worked cases with known answers.
CC(c1ccc(CNCCOCCOCCOCCCc2ccc3c(c2)n(C)c(=O)n3C2CCC(=O)NC2=O)cc1)n1cc(-c2cc(-c3ccccc3O)nnc2N)cn1 (centres unmarked)    > 1000 nM
CN[C@@H](C)C(=O)N[C@H](C(=O)N1Cc2cc(OCCOCCOCCOCCNC(=O)CCCOc3cccc(N4C[C@H]5C[C@@H]4CN5/C=C/C(=O)c4ccccc4O)n3)ccc2C[C@H]1C(=O)N[C@@H]1CCCc2ccccc21)C(C)(C)C    > 1000 nM
Cc1ncsc1-c1ccc(CNC(=O)[C@@H]2C[C@@H](O)CN2C(=O)[C@@H](NC(=O)CN2CCCC(n3cc(-c4cc(-c5ccccc5O)nnc4N)cn3)C2)C(C)(C)C)cc1 (some centres unmarked)    > 1000 nM
Cc1ncsc1-c1ccc(CNC(=O)[C@@H]2C[C@@H](O)CN2C(=O)[C@@H](NC(=O)CCCCCCCN2CCC(Cn3cc(-c4cc(-c5ccccc5O)nnc4N)cn3)CC2)C(C)(C)C)cc1    > 1000 nM
Cn1c(=O)n(C2CCC(=O)NC2=O)c2ccc(CCCOc3ccc(CN4CCN(c5cc(-c6ccccc6O)nnc5N)CC4)cc3)cc21 (centres unmarked)    > 1000 nM
Cn1c(=O)n(C2CCC(=O)NC2=O)c2ccc(CCCCCc3cn(Cc4cccc(N5C[C@H]6C[C@@H]5CN6/C=C/C(=O)c5ccccc5O)n4)nn3)cc21 (some centres unmarked)    > 1000 nM
CC(c1ccc(C(=O)NCCOCCOCCNc2cccc3c2C(=O)N(C2CCC(=O)NC2=O)C3=O)cc1)n1cc(-c2cc(-c3ccccc3O)nnc2N)cn1 (centres unmarked)    > 1000 nM
Cc1ncsc1-c1ccc(CNC(=O)[C@@H]2C[C@@H](O)CN2C(=O)[C@@H](NC(=O)COCCOCCOCCOCCNC(=O)CCCCCCCCOc2ccc(N3C[C@H]4C[C@@H]3CN4/C=C/C(=O)c3ccccc3O)nc2)C(C)(C)C)cc1    > 1000 nM

Dear colleague, please send me the reported DC50 for Cn1c(=O)n(C2CCC(=O)NC2=O)c2cccc(CCCCCCCN3CCC(Cn4cc(-c5cc(-c6ccccc6O)nnc5N)cn4)CC3)c21 (centres unmarked) when you can.
< 100 nM

Item Cn1c(=O)n(C2CCC(=O)NC2=O)c2ccc(CCCCCCCCCN3CCC(Cn4cc(-c5cc(-c6ccccc6O)nnc5N)cn4)CC3)cc21 (centres unmarked) : provide DC50
< 100 nM

# return recorded DC50 for entry Cn1c(=O)n(C2CCC(=O)NC2=O)c2cccc(C#CCCCCCCc3cn(Cc4cccc(N5C[C@H]6C[C@@H]5CN6/C=C/C(=O)c5ccccc5O)n4)nn3)c21 (some centres unmarked)
> 1000 nM

* * *

Listed here: items and their measured DC50.
Target: SMARCA2 (Homo sapiens)
Sequence (P51531 whole entry): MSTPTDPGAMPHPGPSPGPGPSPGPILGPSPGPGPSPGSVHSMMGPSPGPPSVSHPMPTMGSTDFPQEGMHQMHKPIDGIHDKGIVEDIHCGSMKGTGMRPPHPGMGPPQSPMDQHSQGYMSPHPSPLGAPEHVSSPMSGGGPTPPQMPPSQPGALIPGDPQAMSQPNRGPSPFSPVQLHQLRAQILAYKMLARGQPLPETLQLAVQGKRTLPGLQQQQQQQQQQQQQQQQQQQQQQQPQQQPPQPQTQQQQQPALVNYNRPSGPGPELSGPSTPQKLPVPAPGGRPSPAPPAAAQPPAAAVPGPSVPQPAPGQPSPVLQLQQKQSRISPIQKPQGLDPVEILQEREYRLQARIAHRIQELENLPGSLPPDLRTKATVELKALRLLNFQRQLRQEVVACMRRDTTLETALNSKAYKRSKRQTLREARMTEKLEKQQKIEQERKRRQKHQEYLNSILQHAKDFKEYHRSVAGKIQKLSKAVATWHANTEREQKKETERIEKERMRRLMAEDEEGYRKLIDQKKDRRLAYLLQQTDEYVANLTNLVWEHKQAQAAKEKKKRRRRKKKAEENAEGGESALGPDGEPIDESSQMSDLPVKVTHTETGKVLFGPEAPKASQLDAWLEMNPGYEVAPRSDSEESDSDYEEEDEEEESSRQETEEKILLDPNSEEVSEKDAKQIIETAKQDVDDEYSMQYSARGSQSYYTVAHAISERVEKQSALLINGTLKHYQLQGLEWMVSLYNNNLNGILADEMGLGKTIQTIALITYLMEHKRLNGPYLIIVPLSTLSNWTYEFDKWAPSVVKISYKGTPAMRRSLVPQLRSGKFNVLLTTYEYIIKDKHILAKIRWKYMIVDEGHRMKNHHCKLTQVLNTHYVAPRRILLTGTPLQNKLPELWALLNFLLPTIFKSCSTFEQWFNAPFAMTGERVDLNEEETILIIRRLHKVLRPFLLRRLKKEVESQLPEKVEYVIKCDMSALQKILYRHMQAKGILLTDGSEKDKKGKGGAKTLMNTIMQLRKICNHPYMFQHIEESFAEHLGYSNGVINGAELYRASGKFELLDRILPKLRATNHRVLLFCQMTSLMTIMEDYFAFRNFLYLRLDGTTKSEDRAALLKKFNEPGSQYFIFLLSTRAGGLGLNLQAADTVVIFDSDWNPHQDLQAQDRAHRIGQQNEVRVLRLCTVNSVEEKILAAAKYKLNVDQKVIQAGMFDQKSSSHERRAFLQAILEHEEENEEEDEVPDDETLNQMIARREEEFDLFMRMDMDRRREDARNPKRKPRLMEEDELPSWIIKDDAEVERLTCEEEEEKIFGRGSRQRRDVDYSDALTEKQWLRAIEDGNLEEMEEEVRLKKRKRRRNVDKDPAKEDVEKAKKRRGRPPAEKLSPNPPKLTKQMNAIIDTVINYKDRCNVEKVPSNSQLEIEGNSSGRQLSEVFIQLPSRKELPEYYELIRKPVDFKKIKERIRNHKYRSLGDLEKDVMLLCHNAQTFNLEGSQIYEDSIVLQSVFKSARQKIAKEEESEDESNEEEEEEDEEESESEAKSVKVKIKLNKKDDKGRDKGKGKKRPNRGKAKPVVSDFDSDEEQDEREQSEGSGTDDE
Experiment: MSD SMARCA2 degradation in NCI-H1299 cell line (24 h)
Type: cell-based
Set-up: HC: NCI-H1299 cells treated with DMSO; host or cells: NCI-H1299
Details: NCI-H1299 cells, read-out: SMARCA2 MSD H1299 degradation 24 h: External Abs-DC50

Cn1c(=O)n(C2CCC(=O)NC2=O)c2ccc(CNCCCCc3cn(Cc4cccc(N5C[C@H]6C[C@@H]5CN6/C=C/C(=O)c5ccccc5O)n4)nn3)cc21 (stereo partly drawn) [I-75]    > 1 µM
Cn1c(=O)n(C2CCC(=O)NC2=O)c2cccc(CN3CCCC(n4cc(-c5cc(-c6ccccc6O)nnc5N)cn4)C3)c21 (stereo not drawn) [I-168]    0.1 to 0.5 µM

Find the measured DC50 of Cc1ncsc1-c1ccc(CNC(=O)[C@@H]2C[C@@H](O)CN2C(=O)[C@@H](NC(=O)COCCOCCOCCOCCOCCNC(=O)c2ccc(C(C)n3cc(-c4cc(-c5ccccc5O)nnc4N)cn3)cc2)C(C)(C)C)cc1 (stereo partly drawn) [I-226] and report it.
> 1 µM

Give the reported DC50 for this molecule. Cn1c(=O)n(C2CCC(=O)NC2=O)c2cccc(CCCCCc3cn(Cc4cccc(N5C[C@H]6C[C@@H]5CN6/C=C/C(=O)c5ccccc5O)n4)nn3)c21 (stereo partly drawn) [I-50]
> 1 µM

Query DC50 for O=C1CCC(n2c(=O)n(CCCCCCCc3cn(Cc4cccc(N5C[C@H]6C[C@@H]5CN6/C=C/C(=O)c5ccccc5O)n4)nn3)c3ccccc32)C(=O)N1 (stereo partly drawn) [I-57]
> 1 µM

State its DC50: Cn1c(=O)n(C2CCC(=O)NC2=O)c2cccc(C#CCCCCc3cn(Cc4cccc(N5C[C@H]6C[C@@H]5CN6/C=C/C(=O)c5ccccc5O)n4)nn3)c21 (stereo partly drawn) [I-66]
> 1 µM
